# Target: KRas G12D mutant protein (Homo sapiens (Human), UniProt P01116, G12D)
# Sequence (P01116-2 other isoform, or with tags, fused parts or gaps G12D): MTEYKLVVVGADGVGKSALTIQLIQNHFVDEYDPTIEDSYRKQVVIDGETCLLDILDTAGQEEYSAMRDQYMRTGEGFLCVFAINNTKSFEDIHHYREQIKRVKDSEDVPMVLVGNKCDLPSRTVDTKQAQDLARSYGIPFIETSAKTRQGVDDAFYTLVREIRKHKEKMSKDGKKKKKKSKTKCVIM
# Procedure Details: Ras GTP binding domain inhibition assay (labeled GTP)
# Test Parameters: 20 μM compound; KRas G12D; read-out: % Inhibition at 20 μM of K-Ras mutant and wild-type protein, KRas G12D
Documented inhibition at 20 µM across a set of compounds

Compound	inhibition at 20 µM
COCCNc1nc(-c2nccn2C)nc2sc(-c3ccccc3)c(-c3ccccc3)c12 [drawing 3535]	76 to 100%
Cn1ccnc1-c1nc(O)c2scc(-c3ccccc3)c2n1 [drawing 3614]	51 to 75%
Cc1sc2c(O)nc(-c3ccccn3)nc2c1-c1ccncc1 [drawing 3497]	51 to 75%
COCCNc1nc(-c2nccn2C)nc2sc(-c3ccccc3)c(-c3ccccn3)c12 [drawing 3622]	25 to 50%
COc1nc(-c2ccccn2)nc2c(C3CCCC3)csc12 [drawing 3470]	25 to 50%
CC(C)Oc1ccc(-c2c(-c3ccccc3)sc3c(O)nc(-c4nccn4C)nc23)cc1F [drawing 3611]	25 to 50%
Cn1ccnc1-c1nc(O)c2scc(-c3cccc(OC(F)(F)F)c3)c2n1 [drawing 3603]	51 to 75%
COCCNc1nc(-c2nccn2C)nc2sc(-c3ccncc3)c(-c3ccccc3)c12 [drawing 3582]	51 to 75%
COCC(C)Nc1nc(-c2ccccn2)nc2sc(-c3ccncc3)c(-c3ccccc3)c12 (stereo not drawn) [drawing 3541]	25 to 50%
Oc1nc(-c2ccccn2)nc2c(C3CCCC3)csc12 [drawing 3495]	51 to 75%
Cc1sc2c(O)nc(-c3ccccn3)nc2c1C(=O)N1CCN(c2ccccc2)CC1C (stereo not drawn) [drawing 3509]	51 to 75%
Oc1nc(-c2ncccn2)nc2c(-c3cccc(C(F)(F)F)c3)csc12 [drawing 3608]	25 to 50%
COc1ccc(COC[C@H]2O[C@@H](c3csc4c(=O)[nH]c(-c5ccccn5)nc34)[C@H](O)[C@@H]2O)cc1 [drawing 3533]	25 to 50%
COCCNc1nc(-c2nccn2C)nc2sc(-c3ccccc3)c(-c3ccccc3Cl)c12 [drawing 3580]	25 to 50%
Oc1nc(-c2ccncn2)nc2c(-c3cccc(C(F)(F)F)c3)csc12 [drawing 3607]	1 to 25%
COc1cnc(-c2ccccn2)nc1O [drawing 3469]	51 to 75%
COCCNc1nc(-c2cn(C)cn2)nc2sc(C)c(-c3ccccc3)c12 [drawing 3585]	25 to 50%
Cc1sc2c(O)nc(-c3nccn3C)nc2c1-c1ccc(F)cc1F [drawing 3621]	1 to 25%

###

# Target: Rac-1 (Homo sapiens (Human))
# Procedure Details: Rac inhibition assay (labeled GTP)
# Type: binding
# Test Parameters: read-out: Rac-1 % Inh.
Documented inhibition at 20 µM across a set of compounds

Compound	inhibition at 20 µM
COC(=O)c1cc2nc(-c3ccccn3)nc(O)c2s1 [drawing 3779]	51 to 75%
COCCNc1nc(-c2ccncn2)nc2sc(-c3ccccc3)c(-c3ccccc3)c12 [drawing 3892]	1 to 25%
Oc1nc(-c2ccccn2)nc2c(-c3cccc(C(F)(F)F)c3)csc12 [drawing 3745]	51 to 75%
COc1cnc(C(C)(C)N)nc1O [drawing 3810]	1 to 25%
CC(C)Oc1cnc(-c2ccccn2)nc1O [drawing 3800]	76 to 100%
Cc1ccccc1N1CCN(C(=O)c2csc3c(O)nc(-c4ccccn4)nc23)CC1 [drawing 3628]	76 to 100%
Cc1ccc(-c2csc3c(O)nc(-c4ccccn4)nc23)cc1 [drawing 3878]	0%
COc1cnc(CN)[nH]c1=O [drawing 3690]	25 to 50%
N#Cc1cccc(N2CCN(C(=O)c3csc4c(O)nc(-c5ccccn5)nc34)CC2)c1 [drawing 3644]	51 to 75%

###

# Target: KRas G12D/Q61H double mutant (Homo sapiens (Human), UniProt P01116, G12D/Q61H)
# Sequence (P01116-2 other isoform, or with tags, fused parts or gaps G12D/Q61H): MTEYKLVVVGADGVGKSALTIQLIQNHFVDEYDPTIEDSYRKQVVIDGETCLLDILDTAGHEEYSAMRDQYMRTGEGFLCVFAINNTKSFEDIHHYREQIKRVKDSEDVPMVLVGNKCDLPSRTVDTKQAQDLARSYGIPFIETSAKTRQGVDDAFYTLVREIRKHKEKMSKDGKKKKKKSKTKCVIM
# Procedure Details: Ras GTP binding domain inhibition assay (labeled GTP)
# Test Parameters: 20 μM compound; read-out: % Inhibition at 20 μM KRas G12D Q61H
Documented inhibition at 20 µM across a set of compounds
Value Kind: inhibition at 20 µM

Compound	Observed Measurement
O=C(c1csc2c(O)nc(-c3ccccn3)nc12)N1CCN(c2ccccc2F)CC1 [drawing 2721]	25 to 50%
N#Cc1ccccc1S(=O)(=O)NC(c1ccccc1)c1ccccn1 (stereo not shown)	1 to 25%
Cc1nc(-c2ccccn2)[nH]c(=O)c1CCO	25 to 50%
CC(=O)Nc1cccc(CNc2cc(C)nc(-c3ccccn3)n2)c1	25 to 50%
CC(c1nc2ccccc2n1CCOc1ccccc1)N1CCCCC1 (stereo not shown)	1 to 25%
O=C(Cc1ccc(Cl)cc1)Nc1nnc(-c2ccccn2)[nH]1	25 to 50%
Cc1nc(-c2ccccn2)nc(O)c1CCC(=O)N(C)c1cccc(C#N)c1	25 to 50%
COc1ccc(CCNC(=O)c2csc3nc(-c4ccccn4)nc(N4CCS(=O)(=O)CC4)c23)cn1 [drawing 2853]	25 to 50%
Cc1oc(-c2ccccc2)nc1CN(C)CC(=O)Nc1ccc(N2CCOCC2)cc1	25 to 50%
COc1ccc(COCC(=O)Nc2ccnc(-c3ccccn3)n2)cn1 [drawing 2699]	25 to 50%
FC(F)(F)c1ccnc(N2CCN(CCc3ccncc3)CC2)n1	25 to 50%
Cc1nc(-c2ccccn2)nc(NC(C)CO)c1C (stereo not shown)	1 to 25%
O=C(CCn1ccnc1)Nc1nc(-c2ccccn2)nc2sccc12 [drawing 2889]	51 to 75%
COC(=O)CCN(Cc1ccc(F)c(F)c1)c1nc(C(F)(F)F)ccc1C#N	25 to 50%
Cc1cccc(CN(Cc2ccccn2)Cc2ncc(C(C)(C)C)o2)c1	1 to 25%
CN(Cc1ccc(C(=O)NCC(F)(F)F)cc1)Cc1ccc(F)cc1Cl	25 to 50%
COc1ccc(NC(=O)CN(C)Cc2coc(-c3cccs3)n2)cc1	25 to 50%
CN(Cc1ccc(C(F)(F)F)cc1)Cc1cc2c(cc1O)CCC2	25 to 50%
OC[C@H]1C=C[C@@H](Nc2nc(-c3ccccn3)nc3c2CCC3)C1	25 to 50%
CCOCCCNC(=O)c1cc(S(=O)(=O)N(CC)CC)ccc1NCCOC	1 to 25%
COc1ccc(CC(=O)Nc2nc(-c3ccccn3)cs2)cc1	25 to 50%
COc1cc(N2CCN(C(=O)c3csc4c(O)nc(-c5ccccn5)nc34)CC2)cc(OC)c1OC [drawing 2758]	0%

###

# Target: KRas Q61H mutant (Homo sapiens (Human), UniProt P01116, Q61H)
# Sequence (P01116-2 other isoform, or with tags, fused parts or gaps Q61H): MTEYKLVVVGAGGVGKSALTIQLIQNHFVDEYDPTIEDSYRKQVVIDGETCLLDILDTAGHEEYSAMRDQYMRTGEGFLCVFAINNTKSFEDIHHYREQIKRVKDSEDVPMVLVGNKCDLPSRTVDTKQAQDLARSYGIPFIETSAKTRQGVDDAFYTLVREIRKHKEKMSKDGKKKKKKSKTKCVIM
# Procedure Details: Ras GTP binding domain inhibition assay (labeled GTP)
# Test Parameters: 20 μM compound; KRas Q61H; read-out: % Inhibition at 20 μM of K-Ras mutant and wild-type protein, KRas Q61H
Documented inhibition at 20 µM across a set of compounds
Value Kind: inhibition at 20 µM

Compound	Observed Measurement
COC(=O)c1c(C)sc2c(N)nc(-c3ccccn3)nc12 [drawing 3499]	76 to 100%
COCC(C)Nc1nc(-c2ccccn2)nc(C(=O)NCCCc2c[nH]cn2)c1Oc1ccccc1 (stereo not drawn) [drawing 3550]	1 to 25%
COC(=O)c1c(C)sc2nc(-c3ccccn3)nc(N)c12 [drawing 3485]	25 to 50%
Oc1nc(-c2ccccn2)nc2c(-c3cncc(F)c3)csc12 [drawing 3464]	1 to 25%
Oc1nc(-c2ccccn2)nc2c(CC3CNC3)csc12 [drawing 3519]	51 to 75%
COc1cnc(CNC(=O)c2sc3c(O)nc(-c4ccccn4)nc3c2C)[nH]c1=O [drawing 3524]	0%
Oc1nc(-c2ccccn2)nc2cc(-c3ccccc3Cl)sc12 [drawing 3556]	51 to 75%
Oc1nc(-c2ccccn2)nc2c(-c3cncc(C(F)F)c3)csc12 [drawing 3507]	1 to 25%
COC(=O)c1sc2c(O)nc(-c3ccccn3)nc2c1C [drawing 3476]	51 to 75%

###

# Target: KRas G12D/Q61H double mutant (Homo sapiens (Human), UniProt P01116, G12D/Q61H)
# Procedure Details: Ras GTP binding domain inhibition assay (labeled GTP)
# Test Parameters: 20 μM compound; read-out: % Inhibition at 20 μM KRas G12D Q61H
# Protocol: Buffer-I: • 50 mM Tris, pH 7.5 • 150 mM NaCl (optional) • 1 mM MgCl2 • 1 mM DTT. • KRas G12D mutant protein was expressed as a His-tagged protein. […] Then 22 μl of Cy3-GTP or Cy5-GTP was added to each well. The labeled GTP was incubated for 45 min. at room temperature. • Following GTP incubation, wells were washed 3× in Buffer-I, and 200 μl of Buffer-I were added to each well. • Following washes, the amount of bound labeled-GTP was measured with an Eppendorf AF2200 plate reader. […]
Value Kind: inhibition at 20 µM

Compound	Value Kind	Observed Measurement
O=C(NCCc1cccnc1)c1csc2nc(-c3ccccn3)nc(N3CCOCC3)c12 [drawing 2744]	inhibition at 20 µM	1 to 25%
O=C(NCCc1cccnc1)c1csc2c(O)nc(-c3ccccn3)nc12 [drawing 2689]	inhibition at 20 µM	51 to 75%
Cc1ccccc1C1CN(C(=O)c2csc3c(O)nc(-c4ccccn4)nc23)CCN1 (stereo not shown) [drawing 2775]	inhibition at 20 µM	25 to 50%
CC1(N)CCN(C(=O)c2csc3c(O)nc(-c4ccccn4)nc23)CC1 [drawing 2684]	inhibition at 20 µM	76 to 100%
